In this section, each of the binders is paired with its reported Kd.
assay target: T1, wild-type human CLDN-5 protein (human, UniProt O00501 1-218)
T1 construct: Four-transmembrane tight junction protein expressed by retrovirus on HT-1080 (or MDCKII) cells; also called hCLDN-5; human Claudin-5 protein
T1 sequence: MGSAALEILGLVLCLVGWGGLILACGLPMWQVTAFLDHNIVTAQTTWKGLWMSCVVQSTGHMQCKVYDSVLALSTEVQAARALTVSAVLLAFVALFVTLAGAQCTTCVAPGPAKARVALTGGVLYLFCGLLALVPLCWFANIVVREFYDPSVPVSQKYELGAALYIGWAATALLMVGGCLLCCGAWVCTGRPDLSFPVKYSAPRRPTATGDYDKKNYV
experimental protocol: FACS saturation binding on HT-1080/hCLDN-5, one-site fit; Lot 2

Below are worked cases with known answers.
rat anti-CLDN-5 antibody R9 (antibody, rat IgG2b, V domains shown, Hybridoma monoclonal; also called antibody I) VH: QVTLKESGPGILQPSHTLSLTCSFSGFSLNTYGVGVNWIRQPSGKGLEWLASIWWHGKTYINPSLKNRLTVSKDPSNNQAFLEVTNVDPADTATYYCAHARAQLLDYWGQGVMVTVSS VL: DIVMTQTPSSQAVSAGEKVTMSCKSSQSLLYSGDQKNYLAWYQQKPGQSPKLLIYLTSTRESGVPDRFIGSGSGTDFTLTISSVQAEDLADYYCQQHYSYPLTFGSGTKLEI : 2.75 nM
mouse anti-CLDN-5 antibody M48 (antibody, mouse IgG3, V domains shown, Hybridoma monoclonal; also called antibody E) VH: QAYLQQSGAELVRPGASVKMSCKASGYTFTSYNMHWVKKTRRQGLEWIGAISPGNGNTSYNQKFKGKATLTVDKSSSTAYMQLSSLTSEDSAVYFCARDDGYYGALDYWGQGTSVTVSS VL: DIVLTQSPATLSVTPGESVSLSCRASQGISTSIHWYQQKSNESPRLLIRYASQSISRIPSRFSGSGSGTDFTLTINGVESEDLSVYYCQQSYNLPLTFGSGTKLEI : 8.47 nM

Alright, here's another binder for you.
Lab book: Kd of rat anti-CLDN-5 antibody R3 (antibody, rat IgG2a, V domains shown, Hybridoma monoclonal; also called antibody G) VH: EVQLVESGGGLVQPGRSLKLSCAASGFTFSDYYMAWVRQAPKKGLEWVASISYEGRNTYYGDSVKGRFTISRDNAKSTLYLQMKSLRSEDTATYYCTRHPRRYFDYWGQGVMVTVSS VL: DIVMTQSPSSLAVSAGETVTMNCRSSQSLFSSGDQKKFLAWYQQKPGQSPKLLISLASTRESGVPDRFIGSGSGTDFTLTINNMQAEDLAIYYCQQHYDIPYTFGAGTKLEL noted as 2.44 nM
